Assay details: Protein binding in Balb/C mouse plasma at 100 mg/kg, ip bid
Type: ADME, organism-based
Reported conditions: Balb/C, plasma, read-out: PPB
Reported property: fraction unbound
Lab note: record the figure alone, no unit after it.

Asked: Need fraction unbound of CC1CCN(C(=O)C(CCn2cccc2C#N)NS(=O)(=O)c2cccc3[nH]ccc23)CC1 (stereo in doubt; form 1) , thanks.
Given back: 0.01

* * *

Tgt: C-C chemokine receptor type 10 (Homo sapiens)
Sequence (P46092 whole entry): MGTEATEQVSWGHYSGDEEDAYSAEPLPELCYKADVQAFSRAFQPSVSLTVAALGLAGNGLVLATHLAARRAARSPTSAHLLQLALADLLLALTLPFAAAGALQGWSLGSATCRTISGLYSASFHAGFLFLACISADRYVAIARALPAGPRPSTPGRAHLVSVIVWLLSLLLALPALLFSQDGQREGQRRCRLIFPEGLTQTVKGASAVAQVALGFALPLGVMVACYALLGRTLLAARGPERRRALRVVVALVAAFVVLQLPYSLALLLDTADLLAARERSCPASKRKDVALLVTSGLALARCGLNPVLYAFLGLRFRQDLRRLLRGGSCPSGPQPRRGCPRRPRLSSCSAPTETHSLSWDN
Assay details: Displacement of human CCL27-Fc from CCR10 expressed in HEK cell membranes by immunochemical binding analysis
Set-up: species or system HEK293
Reported property: pIC50
API: returns pIC50 as number; meaning -log10 of concentration in mol/L.

Asked: Give the measured pIC50 of CC1CCN(C(=O)C(CCn2cccc2C#N)NS(=O)(=O)c2cc(Cl)c(N)c(Cl)c2)CC1 (stereo unspecified) .
Given back: 8.47
